Assay: qHTS of pediatric cancer cell lines to identify multiple opportunities for drug repurposing: Primary screen for A673 cells (AID 1347092); note: nearly all actives have a fitted effect of over 45% in size
Details: A673 Ewing sarcoma viability, CellTiter-Glo ATP luminescence, 48 h; series mostly up to 46 µM
Records with an inconclusive call do not appear. Activity calls are given as the source filed them. Calls come from the whole dose curve; as a rule, active = well fitted cell-killing curve with a large enough effect; inconclusive = small, poorly fitted or top-dose-only effect; inactive = no such curve, though single readings can be large or run the other way.
Respond only with the outcome that fits, drawn from active, inactive

// known answers, use as guide
{"compound": "Cc1cnc(Nc2ccc(N3CCN(C)CC3)cc2)nc1Nc1cccc(S(=O)(=O)NC(C)(C)C)c1", "class.label": "active"}
{"compound": "CNC(=O)c1ccc(Nc2cc(Nc3ccccc3S(=O)(=O)C(C)C)c3cc[nH]c3n2)nc1", "class.label": "active"}

Ask: Recorded call for c1coc(CNc2ncnc3nc[nH]c23)c1 ?
Reply: inactive

Ask: Thanks! And O=C(O)c1ccc(Nc2ncc3c(n2)-c2ccc(Cl)cc2C(c2c(F)cccc2F)=NC3)cc1 ?
Reply: active

Ask: Thanks! And COc1ccc2c(c1OC)C(=O)OC2[C@H]1c2c(cc3c(c2OC)OCO3)CCN1C (stereo partly drawn) ?
Reply: active

Ask: Thanks! And CC(C)[C@H](CO)Nc1nc(Nc2cccc(Cl)c2)c2ncn(C(C)C)c2n1 ?
Reply: active

Ask: Thanks! And Nc1ccn(C[C@@H](CO)OCP(=O)(O)O)c(=O)n1 ?
Reply: inactive

###

Assay: Primary fluorescence-based thiol-reactive (MSTI) qHTS assay for identification of artifact compounds. (AID 1845221); note: nearly all actives have a fitted effect of over 65% in size
Conditions: MSTI thiol-reactivity probe, 1 h; series mostly up to 53.8 µM
Results filed as inconclusive are left out. Active and inactive are the calls of the source. The call rests on the fitted dose curve; in most records, active means well fitted inhibition curve with a large enough effect; inconclusive means small, poorly fitted or top-dose-only effect; inactive means no such curve, though single readings can be large or run the other way.
Respond only with the outcome that fits, drawn from active, inactive

// known answers, use as guide
{"compound": "O=C(Nc1ccc(Oc2ccnc3[nH]ccc23)c(F)c1)c1cccn(-c2ccc(F)cc2)c1=O", "class.label": "inactive"}
{"compound": "CC(O)(C#Cc1ccc2c(c1)N(c1nc(N)ncc1Cl)CC2)c1nccs1 (stereo not given)", "class.label": "inactive"}
{"compound": "Cn1cc(-c2ccc3ncc(Cc4ccc5ncccc5c4)n3n2)cn1", "class.label": "inactive"}
{"compound": "FC(F)(F)c1ccc(Nc2nc3ccc(Oc4ccnc(-c5ncc(C(F)(F)F)[nH]5)c4)cc3[nH]2)cc1", "class.label": "inactive"}
{"compound": "Cc1coc2c1C(=O)C(=O)c1c-2ccc2c(C)cccc12", "class.label": "active"}
{"compound": "C[N+]1(C)[C@@H]2C[C@@H](OC(=O)C(O)(c3cccs3)c3cccs3)C[C@H]1[C@@H]1O[C@@H]12", "class.label": "inactive"}

Ask: Recorded call for C[C@@H](Cc1cc2c(c(C(N)=O)c1)N(CCCO)CC2)NCCOc1ccccc1OCC(F)(F)F ?
Reply: inactive

Ask: Thanks! And COc1ccc(S(=O)(=O)Nc2cccnc2Nc2ccc(O)cc2)cc1 ?
Reply: active

Ask: Thanks! And CCc1nc(-c2cccc(C)c2)c(-c2ccnc(NC(=O)c3ccccc3)c2)s1 ?
Reply: inactive

Ask: Thanks! And Oc1cc(-c2nc(-c3ccccc3)[nH]c2-c2ccncc2)ccc1Cl ?
Reply: inactive

###

Test: Quantitative High-Throughput drug screen in 47 multiple myeloma cell lines against the NCATS MIPE library collection: KMS20_JCRB cell viability assay (AID 1918973); note: nearly all actives have a fitted effect of over 45% in size
Conditions: CellTiter-Glo ATP, 48 h; series mostly up to 45.8 µM
Records with an inconclusive call do not appear. Activity calls are given as the source filed them. Calls follow the shape of the dose curve; as a rule, active = well fitted cell-killing curve with a large enough effect; inconclusive = small, poorly fitted or top-dose-only effect, or effect the other way; inactive = no such curve, though single readings can be large or run the other way.
Respond only with the outcome that fits, drawn from active, inactive

{"compound": "Cc1[nH]c(C=C2C(=O)Nc3ccccc32)c(C)c1CCC(=O)O", "class.label": "active"}

Ask: Recorded call for CC(=O)OCC(=O)[C@@]1(O)CC[C@H]2[C@@H]3CCC4=CC(=O)CC[C@]4(C)[C@@H]3C(=O)C[C@@]21C ?
Reply: inactive

Ask: Thanks! And COc1ccc(C(C)=O)c(O)c1 ?
Reply: inactive

Ask: Thanks! And COc1ccc(S(=O)(=O)Nc2cc(-c3c(O)ccc4ccccc34)c(O)c3ccccc23)cc1 ?
Reply: active

###

Test: Quantitative High-Throughput drug screen in 47 multiple myeloma cell lines against the NCATS MIPE library collection: VP6_DJ cell viability assay (AID 1919867); note: nearly all actives have a fitted effect of over 40% in size
Settings: ATP luminescence, 48 h; series mostly up to 45.8 µM
Inconclusive results are not listed. Calls of active or inactive are those of the source. Calls come from the whole dose curve; as a rule, active = well fitted cell-killing curve with a large enough effect; inconclusive = small, poorly fitted or top-dose-only effect, or effect the other way; inactive = no such curve, though single readings can be large or run the other way.
Respond only with the outcome that fits, drawn from active, inactive

// known answers, use as guide
{"chem.smiles": "CCC[C@H]1C[C@H](C(=O)N[C@@H]([C@@H]2O[C@@H](SC)[C@@H](O)[C@@H](O)[C@@H]2O)[C@H](C)Cl)N(C)C1", "class.label": "inactive"}
{"chem.smiles": "C=C(C)[C@@H]1CC[C@]2(C(=O)O)CC[C@]3(C)[C@H](CC[C@@H]4[C@@]5(C)CC[C@H](O)C(C)(C)[C@@H]5CC[C@]43C)[C@@H]12", "class.label": "active"}
{"chem.smiles": "O=C(O)C[C@H](O)C[C@H](O)C=Cc1c(C2CC2)nc2ccccc2c1-c1ccc(F)cc1", "class.label": "active"}
{"chem.smiles": "COc1cccc2c1C(=O)c1c(O)c3c(c(O)c1C2=O)C[C@@](O)(C(=O)CO)C[C@@H]3O[C@H]1C[C@H](N)[C@@H](O)[C@H](C)O1", "class.label": "active"}
{"chem.smiles": "CS[C@H]1SC[C@@H]2C(=O)N(C)[C@H](C(C)C)C(=O)OC[C@H](NC(=O)c3cnc4ccccc4n3)C(=O)N[C@H](C)C(=O)N(C)[C@@H]1C(=O)N(C)[C@H](C(C)C)C(=O)OC[C@H](NC(=O)c1cnc3ccccc3n1)C(=O)N[C@H](C)C(=O)N2C", "class.label": "active"}

Continue with the compound presented below.
Ask: Recorded call for CC[C@H]1OC(=O)[C@H](C)[C@@H](O[C@H]2C[C@@](C)(OC)[C@@H](O)[C@H](C)O2)[C@H](C)[C@@H](O[C@@H]2O[C@H](C)C[C@H](N(C)C)[C@@H]2O)[C@](C)(OC)C[C@@H](C)C(=O)[C@H](C)[C@@H](O)[C@]1(C)O ?
Reply: inactive

###

Tested on: HaCat
Assay: Cytotoxic Profiling of Annotated Libraries Using Quantitative High-Throughput Screening (AID 1296008); note: nearly all actives have a fitted effect of over 60% in size
Details: Five cell lines viability, CellTiter-Glo ATP luminescence, 48-72 h
Records with an inconclusive call do not appear. Calls of active or inactive are those of the source. Calls come from the whole dose curve; as a rule, active = well fitted inhibition curve with a large enough effect; inconclusive = small, poorly fitted or top-dose-only effect; inactive = flat fitted curve, though single readings scatter.
Respond only with the outcome that fits, drawn from True for active, False for inactive

{"chem.smiles": "C[C@H]1C[C@H]2[C@@H]3CCC4=CC(=O)C=C[C@]4(C)[C@@H]3C(=O)C[C@]2(C)[C@@]1(O)C(=O)CO", "system.tested": "HaCat", "class.label": "False"}
{"chem.smiles": "COc1ccc([C@@H]2CNC(=O)C2)cc1OC1CCCC1", "system.tested": "HaCat", "class.label": "False"}
{"chem.smiles": "C=Cc1c(C)c2cc3nc(cc4[nH]c(cc5nc(cc1[nH]2)C(C)=C5CCC(=O)O)c(CCC(=O)OC)c4C)[C@@]1(C)C3=CC=C(C(=O)OC)[C@H]1C(=O)OC", "system.tested": "HaCat", "class.label": "False"}

Ask: Recorded call for COc1cccc2c1C(=O)c1c(O)c3c(c(O)c1C2=O)C[C@@](O)(C(C)=O)C[C@H]3O[C@H]1C[C@H](N)[C@H](O)[C@H](C)O1 ?
Reply: True

Ask: Thanks! And CN(C)c1ccc(C(=O)NCCCCCCC(=O)NO)cc1 ?
Reply: True

###

Test: qHTS of pediatric cancer cell lines to identify multiple opportunities for drug repurposing: Primary screen for NB-EBc1 cells (AID 1347095)
Conditions: NB-EBc1 neuroblastoma viability, CellTiter-Glo luminescence, 48 h; series mostly up to 46 µM
Records with an inconclusive call do not appear. Activity calls are given as the source filed them. Calls follow the shape of the dose curve; as a rule, active = well fitted cell-killing curve with a large enough effect; inconclusive = small, poorly fitted or top-dose-only effect; inactive = no such curve, though single readings can be large or run the other way.
Respond only with the outcome that fits, drawn from active, inactive

{"chem.smiles": "COc1cc(C=CC(=O)CC(=O)C=Cc2ccc(O)c(OC)c2)ccc1O", "class.label": "active"}
{"chem.smiles": "CC(=O)ON=C1C(c2c(O)[nH]c3cc(Br)ccc23)=Nc2ccccc21", "class.label": "active"}
{"chem.smiles": "CCc1cnn2c(NCc3ccc[n+]([O-])c3)cc(N3CCCC[C@@H]3CCO)nc12", "class.label": "active"}
{"chem.smiles": "Cc1cnc(NC(=O)Nc2cc(Br)c(C)cc2OC[C@@H]2CNCCO2)cn1", "class.label": "active"}
{"chem.smiles": "COc1cc(OC)c(NC(=O)Nc2cc(C)on2)cc1Cl", "class.label": "inactive"}

Ask: Recorded call for Cc1cn([C@@H]2O[C@H](CO)[C@@H](O)[C@H]2F)c(=O)[nH]c1=O ?
Reply: inactive

Ask: Thanks! And Cn1c(Nc2ccc(C(F)(F)F)cc2)nc2cc(Oc3ccnc(-c4ncc(C(F)(F)F)[nH]4)c3)ccc21 ?
Reply: active

Ask: Thanks! And CCN(CC)Cc1ccc2cc(COC(=O)Nc3ccc(C(=O)NO)cc3)ccc2c1 ?
Reply: active

Ask: Thanks! And CC(=O)O[C@]1(C(C)=O)CC[C@H]2[C@@H]3C=C(C)C4=CC(=O)CC[C@]4(C)[C@@H]3CC[C@@]21C ?
Reply: active
